# System: Candida glabrata (ACPF3309)
# setup.conditions: Nakaseomyces glabratus, read-out: MIC99 Candida glabrata

- query.smiles: "[H]/N=C(\\CCNC(=O)c1cc(NC(=O)c2cc(NC(=O)c3ccc(C=Cc4ccc5nonc5c4)cc3)cn2C)cn1C)N1CCCCC1"
  MIC99: "< 5 µg/mL"
- query.smiles: "CCCCC[N+](C)(C)CCNC(=O)c1cc(NC(=O)c2cc(NC(=O)c3ccc(/C=C/c4cnc5ccccc5c4)cc3)cn2C)cn1C"
  MIC99: "5 to 25 µg/mL"
- query.smiles: "[H]/N=C(\\CCNC(=O)c1cc(NC(=O)c2cc(NC(=O)c3ccc(C=Cc4ccc(N(C)C)cc4)nc3)cn2C)cn1C)NCCCCCCCCC"
  MIC99: "5 to 25 µg/mL"
- query.smiles: "CCCC/N=C(\\CCNC(=O)c1cc(NC(=O)c2cc(NC(=O)c3ccc(/C=C/c4cnc5ccccc5c4)cc3)cn2C)cn1C)NCCCC"
  MIC99: "5 to 25 µg/mL"
- query.smiles: "C/N=C(/CCNC(=O)c1cc(NC(=O)c2cc(NC(=O)c3ccc(/C=C/c4cnc5ccccc5c4)cc3)cn2C)cn1C)NC"
  MIC99: "< 5 µg/mL"
- query.smiles: "[H]/N=C(\\CCNC(=O)c1cc(NC(=O)c2cc(NC(=O)c3ccc(C=Cc4ccc5nonc5c4)cc3)cn2C)cn1C)N1CCSCC1"
  MIC99: "< 5 µg/mL"
- query.smiles: "CN(C)CCCN(CCCN(C)C)C(=O)c1cc(NC(=O)c2cc(NC(=O)c3ccc(/C=C/c4cnc5ccccc5c4)cc3)cn2C)cn1C"
  MIC99: "25 to 50 µg/mL"

Values were extracted from patent US20250313546A1.
